- Test system: Vero E6 infected with SARS-CoV-2
- Protocol Text: inhibition of SARS-CoV-2 cytopathic effect; higher = more antiviral protection, active = above 15
- Measurement Context: 1 nM; 48 h
Measurement Type: inhibition of SARS-CoV-2 cytopathic effect (%)
Record the value in %, omitting the unit from your answer.

>  <Compound>
CC(C(=O)O)c1ccc(CC2CCCC2=O)cc1 (stereo not drawn)

>  <Measurement Units>
%

>  <Value>
0.21

$$$$
>  <Compound>
COc1cccc(CCc2ccccc2OCC[C@@H]2C[C@@H](O)CN2C)c1

>  <Measurement Units>
%

>  <Value>
2.39

$$$$
>  <Compound>
C=CC(=O)Nc1cc2c(Nc3ccc(F)c(Cl)c3)ncnc2cc1OCCCN1CCOCC1

>  <Measurement Units>
%

>  <Value>
2.3

$$$$
>  <Compound>
CNCCC=C1c2ccccc2CCc2ccccc21

>  <Measurement Units>
%

>  <Value>
1.29

$$$$
>  <Compound>
CC1=C(/C=C/C(=C/C=C/C(C)=C/C(=O)O)c2ccc(C)cc2)C(C)(C)CCC1

>  <Measurement Units>
%

>  <Value>
0.94

$$$$
>  <Compound>
Nc1nccs1

>  <Measurement Units>
%

>  <Value>
-0.84

$$$$
>  <Compound>
CC(C)(C)c1ccc(S(=O)(=O)NCc2ccc(C(=O)Nc3cccnc3)cc2)cc1

>  <Measurement Units>
%

>  <Value>
1.28

$$$$
>  <Compound>
Cc1cccc(-c2n[nH]cc2-c2ccc3ncccc3n2)n1

>  <Measurement Units>
%

>  <Value>
-0.69

$$$$

Given the entry NC(CO)(CO)CO , report its measured inhibition of SARS-CoV-2 cytopathic effect. -0.18

Given the entry CC(=O)CC/C=C(\C)CC/C=C(\C)CC/C=C(\C)CCC=C(C)C , report its measured inhibition of SARS-CoV-2 cytopathic effect. -0.07

Given the entry C[C@@H]1CN(c2c(F)c(F)c3c(=O)c(C(=O)O)cn(C4CC4)c3c2F)C[C@H](C)N1 , report its measured inhibition of SARS-CoV-2 cytopathic effect. -6.82

---

- System: Vero E6 infected with SARS-CoV-2
- Protocol Text: inhibition of SARS-CoV-2 cytopathic effect; higher = more antiviral protection, active = above 15
- Measurement Context: 8.33 nM; 48 h
Measurement Type: inhibition of SARS-CoV-2 cytopathic effect (%)
Record the value in %, omitting the unit from your answer.

Answered examples (2):
>  <Compound>
CN(C)CCCSc1ccccc1NC(=O)/C=C/c1ccccc1

>  <Measurement Units>
%

>  <Value>
0.94

$$$$
>  <Compound>
CC(=O)OCC(=O)[C@@]1(O)[C@@H](C)C[C@H]2[C@@H]3CCC4=CC(=O)C=C[C@]4(C)[C@@]3(F)[C@@H](O)C[C@@]21C [betamethasone-acetate]

>  <Measurement Units>
%

>  <Value>
0.805

$$$$

For the record COc1cc(-c2ccc(=O)[nH]n2)ccc1OC(F)F , what value of inhibition of SARS-CoV-2 cytopathic effect is listed for Vero E6 infected with SARS-CoV-2? 1.54

For the record C=C1CC/C=C(\C)CC[C@@H]2[C@@H]1CC2(C)C , what value of inhibition of SARS-CoV-2 cytopathic effect is listed for Vero E6 infected with SARS-CoV-2? 2.63

For the record CNC(=O)Nc1ccc(-c2nc(N3CC4CCC(C3)O4)c3cnn(C4CCC5(CC4)OCCO5)c3n2)cc1 , what value of inhibition of SARS-CoV-2 cytopathic effect is listed for Vero E6 infected with SARS-CoV-2? 1.24

For the record CC[N+](C)(CC)CCC[n+]1c(-c2ccccc2)c2cc(N)ccc2c2ccc(N)cc21 [propidium-iodide] , what value of inhibition of SARS-CoV-2 cytopathic effect is listed for Vero E6 infected with SARS-CoV-2? -0.29

For the record CC(=O)OCC1=C(C(=O)O)N2C(=O)[C@@H](NC(=O)Cc3cccs3)[C@H]2SC1 , what value of inhibition of SARS-CoV-2 cytopathic effect is listed for Vero E6 infected with SARS-CoV-2? 2.69

For the record O=C(NC[C@H]1CN(c2ccc(N3CCOCC3=O)cc2)C(=O)O1)c1ccc(Cl)s1 , what value of inhibition of SARS-CoV-2 cytopathic effect is listed for Vero E6 infected with SARS-CoV-2? 1.35

For the record Cc1oc(=O)oc1CN1CCN(c2cc3c(cc2F)c(=O)c(C(=O)O)c2n3C(C)S2)CC1 (configuration not stated) , what value of inhibition of SARS-CoV-2 cytopathic effect is listed for Vero E6 infected with SARS-CoV-2? -0.69

For the record Cc1ccc2c(c1)[C@]13CCCC[C@@H]1[C@H](C2)N(C)CC3 , what value of inhibition of SARS-CoV-2 cytopathic effect is listed for Vero E6 infected with SARS-CoV-2? 0.39

For the record C=C[C@]1(C)C[C@@H](OC(=O)CSC(C)(C)CNC(=O)[C@H](N)C(C)C)[C@]2(C)[C@H](C)CC[C@]3(CCC(=O)[C@H]32)[C@@H](C)[C@@H]1O , what value of inhibition of SARS-CoV-2 cytopathic effect is listed for Vero E6 infected with SARS-CoV-2? -0.46

---

- Test system: Vero E6 infected with SARS-CoV-2
- Protocol Text: SARS-CoV-2 infection rate relative to infected DMSO; higher = more infection, active = 60 or less
- Measurement Context: 24 h
Measurement Type: SARS-CoV-2 infection rate (%)
Record the value in %, omitting the unit from your answer.

>  <Compound>
C=CCN1C[C@H](C)N([C@H](c2ccc(C(=O)N(CC)CC)cc2)c2cccc(OC)c2)C[C@H]1C (10 µM)

>  <Measurement Units>
%

>  <Value>
106

$$$$
>  <Compound>
CCSc1ccc2c(c1)N(CCCN1CCN(C)CC1)c1ccccc1S2 [thiethylperazine] (10 µM)

>  <Measurement Units>
%

>  <Value>
29.5

$$$$

Then this compound:
Given the entry O=c1oc2c(O)c(O)cc3c(=O)oc4c(O)c(O)cc1c4c23 [ellagic-acid] (10 µM) , report its measured SARS-CoV-2 infection rate. 94

---

Reported inhibition of SARS-CoV-2 cytopathic effect values are given for each entry in this list.
- System: Vero E6 infected with SARS-CoV-2
- Protocol Text: inhibition of SARS-CoV-2 cytopathic effect; higher = more antiviral protection, active = above 15
- Measurement Context: 1 nM; 48 h
Counter-ions that a name gives are not always drawn.
Record the value in %, omitting the unit from your answer.

>  <Compound>
CC1=C(/C=C/C(C)=C/C=C/C(C)=C/C=C/C=C(C)/C=C/C=C(C)/C=C/C2=C(C)CCCC2(C)C)C(C)(C)CCC1 [beta-carotene]

>  <Value>
-0.41

$$$$

Given the entry CCn1c2ccccc2c2cc(CNCc3ccccc3OC)ccc21 , report its measured inhibition of SARS-CoV-2 cytopathic effect. 3.14

Given the entry N=c1ccn2c(n1)O[C@H]1[C@H](O)[C@@H](CO)O[C@H]12 [Cyclocytidine HCl] , report its measured inhibition of SARS-CoV-2 cytopathic effect. 1.24

Given the entry CC(Oc1c(Cl)cccc1Cl)C1=NCCN1 (stereo not given) [lofexidine] , report its measured inhibition of SARS-CoV-2 cytopathic effect. 3.3

Given the entry N=C(N)SCCc1c[nH]cn1 [imetit] , report its measured inhibition of SARS-CoV-2 cytopathic effect. -0.58

Given the entry C[C@H](Cc1ccc(O)c(O)c1)[C@@H](C)Cc1ccc(O)c(O)c1 [masoprocol] , report its measured inhibition of SARS-CoV-2 cytopathic effect. -3.87

Given the entry CC(C)(OCc1nn(Cc2ccccc2)c2ccccc12)C(=O)O [bindarit] , report its measured inhibition of SARS-CoV-2 cytopathic effect. -0.08

Given the entry c1ccc2c(CC3=NCCN3)cccc2c1 [naphazoline] , report its measured inhibition of SARS-CoV-2 cytopathic effect. 1.08

Given the entry O=C(NC1CCNCC1)c1n[nH]cc1NC(=O)c1c(Cl)cccc1Cl , report its measured inhibition of SARS-CoV-2 cytopathic effect. -0.55

Given the entry CCCCCCCCCCOc1cc2c(O)c(C(=O)OCC)cnc2cc1OCC [decoquinate] , report its measured inhibition of SARS-CoV-2 cytopathic effect. -0.9

---

- System: Vero E6 infected with SARS-CoV-2
- Protocol Text: inhibition of SARS-CoV-2 cytopathic effect; higher = more antiviral protection, active = above 15
- Measurement Context: 100 nM; 48 h
Form entry, call: pick from active, inactive

Previously resolved entries follow.
>  <Compound>
CC(C)c1ccc(C(=O)N=C(N)N)cc1S(C)(=O)=O [cariporide]

>  <Assigned Class>
inactive

$$$$
>  <Compound>
C[C@]12CC[C@@H]3c4ccc(OC(=O)c5ccccc5)cc4CC[C@H]3[C@@H]1CC[C@@H]2O [estradiol-benzoate]

>  <Assigned Class>
inactive

$$$$

Record lookup: outcome of this test for CC1=C(C(=O)O)N2C(=O)[C@@H](NC(=O)[C@H](N)C3=CCC=CC3)[C@H]2SC1 [cephradine] ? inactive

Record lookup: outcome of this test for c1cc(Cc2cnc[nH]2)ccn1 [immethridine] ? inactive

Record lookup: outcome of this test for COc1ccc2cc1Oc1ccc(cc1)C[C@H]1c3cc(c(OC)cc3CCN1C)Oc1c(OC)c(OC)cc3c1[C@H](C2)N(C)CC3 [tetrandrine] ? inactive

Record lookup: outcome of this test for CCc1cnn2c(NCc3ccc[n+]([O-])c3)cc(N3CCCC[C@H]3CCO)nc12 [dinaciclib] ? inactive

Record lookup: outcome of this test for O=C(NCCNCC(O)COc1ccc(O)cc1)N1CCOCC1 (stereo not drawn) [xamoterol] ? inactive

Record lookup: outcome of this test for COC(=O)C1=C(C)NC(C)=C(C(=O)OC2CCCN(Cc3ccccc3)C2)C1c1cccc([N+](=O)[O-])c1 (stereo not drawn) [benidipine] ? inactive
